Experimental details: NCI Yeast Anticancer Drug Screen. Data for the cln2 rad14 strain (AID 165);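 note: 0% = growth equal to vehicle treated cultures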
Experimental context: S. cerevisiae cln2 rad14 strain, at 5.0 µM (retest, dose inferred, filed as 0.5), active compounds read high
The panel holds about 79,000 compounds, 15% with a hit somewhere; the sample as a whole holds those more often.
Measured metric: growth inhibition (%)
Your answer is read as %, so omit the unit and give the number.

Q. Returns the measured growth inhibition for the input molecule. Input: [Cl][Ge]([c]1ccccc1)[c]1ccccc1.[Cl][Ge]([c]1ccccc1)[c]1ccccc1
A. 4

Q. Returns the measured growth inhibition for the input molecule. Input: Oc1cc(-[n+]2ccc3ccccc3c2)c(O)c2ccccc12
A. -4

Q. Returns the measured growth inhibition for the input molecule. Input: Cc1ccc(COCO)c(O)c1
A. -7

====

Experimental details: NCI Yeast Anticancer Drug Screen. Data for the mec2-1 strain (AID 157)
Experimental context: S. cerevisiae mec2-1 strain, at 5.0 µM (retest, dose inferred, filed as 0.5)
The panel holds about 79,000 compounds, 15% with a hit somewhere; the sample as a whole holds those more often. Active and inactive are the calls of the source. Cut-off read from the data, not from the text of the source: active = growth inhibition above about 70%; inactive = the rest.
Response enum: YES (active), NO (inactive)

Q. Hi team, can someone confirm the assay call for CCCCCCCCCCCC(=O)NC(CCC(=O)O)C(=O)O (configuration not stated) ?
A. NO

Q. Hi team, can someone confirm the assay call for O=[N+]([O-])C(=C(Nc1ccccc1)Nc1ccccc1)/C(Cl)=C(\Cl)Br ?
A. NO

Q. Hi team, can someone confirm the assay call for O=C1CCSC(=S)N1c1ccccc1C(F)(F)F ?
A. NO

Q. Hi team, can someone confirm the assay call for CC(C)/C=C1\CCC(CN2CCOCC2)C1=O (configuration not stated) ?
A. NO

Q. Hi team, can someone confirm the assay call for Cc1ccccc1Nc1nc(-c2ccccc2)nc(N)c1N=O ?
A. NO

Q. Hi team, can someone confirm the assay call for CCCCOC(=O)C(C)OC(=O)NNc1ccccc1 (configuration not stated) ?
A. NO

Q. Hi team, can someone confirm the assay call for COc1cc(C=O)c(Cl)cc1O ?
A. NO

Q. Hi team, can someone confirm the assay call for Cc1c2ccccc2c(C)n2c1nc1cc(Cl)c(Cl)cc12 ?
A. NO

Q. Hi team, can someone confirm the assay call for O=C1c2c(F)c(F)c(F)c(F)c2SC2=NCCN12 ?
A. NO

Q. Hi team, can someone confirm the assay call for [O-][n+]1c2ccccc2cc2c1c1ccccc1n2O ?
A. NO

Q. Hi team, can someone confirm the assay call for CCOc1ccc2c(c1)[n+]([O-])c(-c1ccc([N+](=O)[O-])cc1)c(N)[n+]2[O-] ?
A. NO

Q. Hi team, can someone confirm the assay call for CCOC(=O)/C=C1/C(=O)OC2C1OC1OC(C)(C)OC12 (configuration not stated) ?
A. NO

Q. Hi team, can someone confirm the assay call for CCOC(=O)/C(=C\c1ccccc1)C(=O)CCN1CCOCC1 ?
A. NO

Q. Hi team, can someone confirm the assay call for CSC(=S)N/N=C(C)/C=C/c1ccccc1 ?
A. NO

Q. Hi team, can someone confirm the assay call for O=C1C2=C(c3ccccc31)C(c1ccccc1Cl)NC(=S)N2 (configuration not stated) ?
A. NO

Q. Hi team, can someone confirm the assay call for Cc1ccc([P+](CCN2C(=O)c3ccccc3C2=O)(c2ccc(C)cc2)c2ccc(C)cc2)cc1 ?
A. YES

Q. Hi team, can someone confirm the assay call for Cc1nc(N)nc(-c2ccccc2)c1N=Nc1ccc(Cl)cc1 ?
A. NO
